test system: VeroE6 cell viability, cytotoxicity CC50; assay: viability of VeroE6 cells – cytotoxicity control for flavivirus guanylyltransferase probe project, dose response (AID 623864)
experimental-readout: CC50

Recorded CC50, per entry:
Cc1ccc(S(=O)(=O)Nc2cc(SCC(=O)O)c(O)c3ccccc23)cc1 | 27.6 µM
Cc1cc(F)ccc1S(=O)(=O)Nc1cc(SCC(=O)O)c(O)c2ccccc12 | 21.6 µM
O=[N+]([O-])c1cccc(S(=O)(=O)Nc2cc(Sc3nc4ccccc4s3)c(O)c3ccccc23)c1 | 7.37 µM

Here's the next entry for you.
Requested field: CC50. Item: Cc1cc(C)c(S(=O)(=O)Nc2cc(SCC(=O)O)c(O)c3ccccc23)c(C)c1
12.6 µM

###

tested on: VeroE6 cell viability, cytotoxicity CC50; test: viability of VeroE6 cells – cytotoxicity control for flavivirus guanylyltransferase probe project, dose response (AID 623864)
Attribute: CC50

Some molecules with recorded CC50:
O=C(O)CSc1cc(NS(=O)(=O)c2cccc3cccnc23)c2ccccc2c1O | 19.2 µM
O=S(=O)(Nc1cc(Cl)c(O)c2ccccc12)c1ccc(F)cc1 | 29.4 µM

Query CC50 on VeroE6 cell viability, cytotoxicity CC50 for COc1ccc(OC)c(S(=O)(=O)Nc2cc(SCC(=O)O)c(O)c3ccccc23)c1
29.7 µM

Report CC50 for O=S(=O)(Nc1cc(SCc2ccccc2)c(O)c2ccccc12)c1ccc(Cl)cc1 tested on VeroE6 cell viability, cytotoxicity CC50.
32.3 µM

Any idea what CC50 came out for O=S(=O)(Nc1cc(Sc2ncn[nH]2)c(O)c2ccccc12)c1ccc(F)cc1 on VeroE6 cell viability, cytotoxicity CC50?
31.7 µM

So what CC50 did O=C(O)CSc1cc(NS(=O)(=O)c2ccc(Cl)cc2)c2ccccc2c1O get with VeroE6 cell viability, cytotoxicity CC50?
30.8 µM

###

test system: VeroE6 cell viability, cytotoxicity CC50; experiment: viability of VeroE6 cells – cytotoxicity control for flavivirus guanylyltransferase probe project, dose response (AID 623864)
experimental-readout: CC50

Examples from the recorded data:
O=C(O)CSc1cc(NS(=O)(=O)c2ccc(F)cc2)c2ccccc2c1O | 20 µM
O=C(O)CSc1cc(NS(=O)(=O)c2ccc(Br)cc2)c2ccccc2c1O | 21.6 µM
O=C(O)CSc1cc(NS(=O)(=O)c2cccc([N+](=O)[O-])c2)c2ccccc2c1O | 30.9 µM

Which CC50 is listed for Cc1ccc(S(=O)(=O)Nc2cc(Sc3nc(C)cc(C)n3)c(O)c3ccccc23)cc1 ?
12.8 µM

For the compound O=[N+]([O-])c1cccc(S(=O)(=O)Nc2cc(SCc3ccccc3)c(O)c3ccccc23)c1 , what CC50 is on record?
14.4 µM
